Conditions: [M+H]+; instrument: TW; calibrated with polyalanine and drug standards
# collision cross section (N2) listing for each entry below
Give your result in Å² as a bare value.

Example cases with answers are listed next.
CN1CC[C@@]2(C)c3cc(O)ccc3N(C)[C@@H]12    149.1
NC(=O)c1ccc(N)nc1 [6-AMINONICOTINAMIDE]    125.7
CCCNC(=O)NS(=O)(=O)c1ccc(Cl)cc1 [CHLORPROPAMIDE]    158.5
COc1cc(C(=O)NCCCCCC(=O)O)cc(OC)c1OC    176.9
Cc1cccc(N(C)C(=S)Oc2ccc3ccccc3c2)c1 [TOLNAFTATE]    173.6

(Q) So what's the measured collision cross section (N2) for this one? CC(C)CCC[C@@H](C)[C@H]1CC[C@H]2[C@@H]3CC=C4CC(=O)CC[C@]4(C)[C@H]3CC[C@]12C
(A) 211.4

(Q) What do we get for COc1c2ccoc2nc2c(OC)c(OCC(O)C(C)(C)O)ccc12 (centres undefined) ?
(A) 181.4

(Q) Could you do the same for O=C(O)CCCC[C@@H]1SC[C@@H]2NC(=O)N[C@@H]21 , please?
(A) 148

(Q) Also, CC(=O)Oc1c(C)cccc1C(=O)O please.
(A) 129.1
